# Experimental details: Remineralizing ability 1: bovine enamel block with artificial caries immersed in sugar test solution
# Setup conditions: sugar 20% in 3.0 mM calcium ion / 1.8 mM phosphate ion; system not containing fluoride; immersed ten days
Please assign n whenever Remineralization value is at or above 600 Vol. % μm, and y whenever it is below.

structure_as_smiles=OC[C@@H](O)[C@@H](O)[C@H](O)[C@H](O)CO discrete_label=n
structure_as_smiles=OC[C@@H](O)[C@H](O)[C@@H](O)CO discrete_label=y
structure_as_smiles=OC[C@@H](O)[C@@H](O)[C@H](O)[C@@H](O)CO discrete_label=n

Item OC[C@H]1O[C@H](O[C@H]2O[C@H](CO)[C@@H](O)[C@H](O)[C@H]2O)[C@H](O)[C@@H](O)[C@@H]1O : Remineralization value beneath 600 Vol. % μm, strictly?
n

Entry source: patent US7300645B2
